test system: parental HEK cells; test: HEK parental Agonist Counterscreen Assay (non-transfected cells); assay type: cell-based; conditions: HEK Agonist Activity; activity relative to known control
API: label(entry) gives true if the entry's Averaged Max % Response (±St. Dev.) is strictly smaller than 10%; on equality or larger values it gives false.

Task item: I wonder whether CC(CCc1ccccc1)NC(=O)Cn1cc2c(n1)CCCC2 (centres unmarked) has Averaged Max % Response (±St. Dev.) below 10%. Can you tell?
Reply: true

Task item: What do you get for COc1ccc(CCNC(=O)c2cnc(N3CCCC3CO)s2)cc1 (centres unmarked) ?
Reply: true

Task item: What do you get for Cc1c(Br)c([N+](=O)[O-])nn1CC(=O)NCCc1ccc(Cl)cc1 ?
Reply: false

Task item: What do you get for O=C(CCc1nc2cccnc2n1Cc1cccs1)NCCc1ccccc1 ?
Reply: true

Task item: What do you get for Cc1cccc(C(=O)NNC(=O)C(C)Oc2ccc(O)cc2O)c1 (centres unmarked) ?
Reply: false

Data origin: patent US20250099420A1
